System: WI-38 cell line
Measurement Notes: In vitro cytotoxicity against normal cell line (MTT)
Assay type: cell-based, human
Set-up: unit not given here
Condition Notes: supplement raw data, dose-response curve fit
# LogIC50 best-fit value, WI-38 annotations

[
  {
    "Compound": "CC(C)(C)NC(=O)c1ccc(NC(=O)CSc2nc3ccccc3o2)cc1 [Compound 12d]",
    "LogIC50 best-fit value, WI-38": 1.997
  },
  {
    "Compound": "Cc1ccc2oc(SCC(=O)Nc3ccc(C(=O)Nc4cccc(Cl)c4)cc3)nc2c1 [Compound 12l]",
    "LogIC50 best-fit value, WI-38": 1.577
  },
  {
    "Compound": "COc1cccc(NC(=O)c2ccc(NC(=O)CSc3nc4cc(C)ccc4o3)cc2)c1 [Compound 12i]",
    "LogIC50 best-fit value, WI-38": 1.885
  },
  {
    "Compound": "CNC(=O)c1cc(Oc2ccc(NC(=O)Nc3ccc(Cl)c(C(F)(F)F)c3)cc2)ccn1 [Sorafenib, sorafenib, reference compound]",
    "LogIC50 best-fit value, WI-38": 1.344
  }
]

====

Test System: VEGFR-2 (Homo sapiens, UniProt P35968)
Construct: purchased
Sequence (P35968 20-1356): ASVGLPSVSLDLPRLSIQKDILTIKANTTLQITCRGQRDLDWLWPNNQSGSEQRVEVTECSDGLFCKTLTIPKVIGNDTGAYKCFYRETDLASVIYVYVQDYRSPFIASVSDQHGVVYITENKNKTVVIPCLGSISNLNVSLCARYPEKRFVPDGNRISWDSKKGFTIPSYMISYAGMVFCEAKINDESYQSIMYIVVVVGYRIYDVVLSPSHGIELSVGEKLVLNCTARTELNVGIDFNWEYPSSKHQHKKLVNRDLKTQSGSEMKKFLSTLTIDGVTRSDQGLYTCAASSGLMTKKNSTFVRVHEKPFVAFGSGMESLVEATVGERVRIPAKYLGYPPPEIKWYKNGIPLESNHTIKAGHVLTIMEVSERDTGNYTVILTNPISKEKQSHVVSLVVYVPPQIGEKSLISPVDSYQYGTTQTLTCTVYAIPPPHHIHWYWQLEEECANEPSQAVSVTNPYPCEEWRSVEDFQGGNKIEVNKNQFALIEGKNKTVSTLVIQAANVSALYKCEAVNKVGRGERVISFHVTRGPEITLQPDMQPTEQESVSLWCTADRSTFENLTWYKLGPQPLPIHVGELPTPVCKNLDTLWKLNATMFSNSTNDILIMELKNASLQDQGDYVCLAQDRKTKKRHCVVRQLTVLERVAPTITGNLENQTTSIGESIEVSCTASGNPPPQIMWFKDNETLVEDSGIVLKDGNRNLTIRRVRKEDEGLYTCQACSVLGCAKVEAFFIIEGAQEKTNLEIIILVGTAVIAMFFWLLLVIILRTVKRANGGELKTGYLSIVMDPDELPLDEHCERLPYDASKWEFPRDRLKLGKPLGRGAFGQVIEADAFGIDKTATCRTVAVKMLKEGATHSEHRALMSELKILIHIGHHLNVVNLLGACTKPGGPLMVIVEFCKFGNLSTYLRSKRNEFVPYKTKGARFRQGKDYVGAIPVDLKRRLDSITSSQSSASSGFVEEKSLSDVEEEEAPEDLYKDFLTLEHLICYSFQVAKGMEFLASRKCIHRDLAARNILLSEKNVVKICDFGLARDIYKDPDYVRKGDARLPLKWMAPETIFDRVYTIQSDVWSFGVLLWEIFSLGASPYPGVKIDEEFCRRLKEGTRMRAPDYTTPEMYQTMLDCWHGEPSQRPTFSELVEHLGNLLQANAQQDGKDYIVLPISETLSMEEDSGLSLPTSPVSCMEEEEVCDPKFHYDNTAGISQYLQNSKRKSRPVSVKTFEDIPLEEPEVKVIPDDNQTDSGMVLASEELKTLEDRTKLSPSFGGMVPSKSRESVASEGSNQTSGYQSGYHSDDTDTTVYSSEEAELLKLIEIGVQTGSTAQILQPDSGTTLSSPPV
Measurement Notes: In vitro VEGFR-2 kinase assay (ELISA kit)
Assay type: biochemical
Condition Notes: supplement raw data, curve fit
Procedure: The assay was applied by ELISA kits in accordance with the comprehensive description in[18]^,[33] as described in Supplementary data. […] 2. In vitro VEGFR-2 kinase assay All the synthesized compounds were tested for its inhibitory activity against VEGFR-2. Human VEGFR-2 ELISA kit (Enzyme-Linked Immunosorbent Assay) was utilized in this test. […] 50 μL of the stop solution was added, then read at 450 […]
Assay Readout: LogIC50 best-fit value, VEGFR-2

[
  {
    "Molecule": "COc1cccc(NC(=O)c2ccc(NC(=O)CSc3nc4cc(C)ccc4o3)cc2)c1 [Compound 12i]",
    "Test System": "VEGFR-2 (Homo sapiens, UniProt P35968)",
    "Result": "2.190 Log (nM)"
  },
  {
    "Molecule": "Cc1ccc2oc(SCC(=O)Nc3ccc(C(=O)Nc4cccc(Cl)c4)cc3)nc2c1 [Compound 12l]",
    "Test System": "VEGFR-2 (Homo sapiens, UniProt P35968)",
    "Result": "1.988 Log (nM)"
  },
  {
    "Molecule": "O=C(CSc1nc2ccccc2o1)Nc1ccc(C(=O)NNC(=O)c2cccc(Cl)c2)cc1 [Compound 13a]",
    "Test System": "VEGFR-2 (Homo sapiens, UniProt P35968)",
    "Result": "2.428 Log (nM)"
  },
  {
    "Molecule": "Cc1ccc2oc(SCC(=O)Nc3ccc(C(=O)NC(C)(C)C)cc3)nc2c1 [Compound 12f]",
    "Test System": "VEGFR-2 (Homo sapiens, UniProt P35968)",
    "Result": "2.423 Log (nM)"
  },
  {
    "Molecule": "CC(C)(C)NC(=O)c1ccc(NC(=O)CSc2nc3ccccc3o2)cc1 [Compound 12d]",
    "Test System": "VEGFR-2 (Homo sapiens, UniProt P35968)",
    "Result": "2.289 Log (nM)"
  }
]

====

Tested on: MCF-7 cell line
Measurement Notes: In vitro anti-proliferative MTT assay, MCF-7
Format: cell-based, human
Condition Notes: Homo sapiens, MCF7, supplement raw data, dose-response curve fit; read-out: LogIC50 best-fit value, MCF-7 (converted)
Procedure: The cytotoxicity results were obtained as median growth inhibitory concentration (IC50). MTT assay protocol. This method was applied in accordance with the comprehensive description in Supplementary data. […] concentration of the synthesized compounds and incubated for 24 h. […] The colorimetric assay was measured and recorded at absorbance of 570 nm using a plate reader (EXL 800, USA). The relative cell viability in percentage was calculated as (A570 of treated samples/A570 of untreated sample) X 100. […]

[
  {
    "Compound": "CNC(=O)c1cc(Oc2ccc(NC(=O)Nc3ccc(Cl)c(C(F)(F)F)c3)cc2)ccn1 [Sorafenib, sorafenib, reference compound]",
    "Test System": "MCF-7 cell line",
    "IC50": "6.46 µM"
  },
  {
    "Compound": "COc1cccc(NC(=O)c2ccc(NC(=O)CSc3nc4cc(Cl)ccc4o3)cc2)c1 [Compound 12h]",
    "Test System": "MCF-7 cell line",
    "IC50": "85.7 µM"
  },
  {
    "Compound": "O=C(CSc1nc2ccccc2o1)Nc1ccc(C(=O)Nc2cccc(Cl)c2)cc1 [Compound 12j]",
    "Test System": "MCF-7 cell line",
    "IC50": "33.6 µM"
  },
  {
    "Compound": "Cc1ccc2oc(SCC(=O)Nc3ccc(C(=O)Nc4cccc(Cl)c4)cc3)nc2c1 [Compound 12l]",
    "Test System": "MCF-7 cell line",
    "IC50": "15.2 µM"
  },
  {
    "Compound": "Cc1ccc2oc(SCC(=O)Nc3ccc(C(=O)NC4CCCC4)cc3)nc2c1 [Compound 12c]",
    "Test System": "MCF-7 cell line",
    "IC50": "36.7 µM"
  },
  {
    "Compound": "O=C(CSc1nc2ccccc2o1)Nc1ccc(C(=O)NNC(=O)c2cccc(Cl)c2)cc1 [Compound 13a]",
    "Test System": "MCF-7 cell line",
    "IC50": "32.4 µM"
  },
  {
    "Compound": "Cc1ccc2oc(SCC(=O)Nc3ccc(C(=O)NNC(=O)c4cccc(Cl)c4)cc3)nc2c1 [Compound 13c]",
    "Test System": "MCF-7 cell line",
    "IC50": "53.1 µM"
  },
  {
    "Compound": "COc1cccc(NC(=O)c2ccc(NC(=O)CSc3nc4ccccc4o3)cc2)c1 [Compound 12g]",
    "Test System": "MCF-7 cell line",
    "IC50": "53 µM"
  }
]

====

Test system: HepG2 cell line
Measurement Notes: In vitro anti-proliferative MTT assay, HepG2
Assay type: cell-based, human
Condition Notes: Homo sapiens, HepG2, 24 h, MTT, 24 h treatment, mean of three experiments; read-out: In vitro IC50 HepG2

[
  {
    "Molecule": "O=C(CSc1nc2ccccc2o1)Nc1ccc(C(=O)NC2CCCC2)cc1 [Compound 12a]",
    "IC50 (µM)": 38.8
  },
  {
    "Molecule": "Cc1ccc2oc(SCC(=O)Nc3ccc(C(=O)NC(C)(C)C)cc3)nc2c1 [Compound 12f]",
    "IC50 (µM)": 37
  },
  {
    "Molecule": "COc1cccc(NC(=O)c2ccc(NC(=O)CSc3nc4cc(Cl)ccc4o3)cc2)c1 [Compound 12h]",
    "IC50 (µM)": 102
  },
  {
    "Molecule": "O=C(CSc1nc2ccccc2o1)Nc1ccc(C(=O)Nc2cccc(Cl)c2)cc1 [Compound 12j]",
    "IC50 (µM)": 33.6
  },
  {
    "Molecule": "COc1cccc(NC(=O)c2ccc(NC(=O)CSc3nc4cc(C)ccc4o3)cc2)c1 [Compound 12i]",
    "IC50 (µM)": 27.3
  },
  {
    "Molecule": "COc1cccc(NC(=O)c2ccc(NC(=O)CSc3nc4ccccc4o3)cc2)c1 [Compound 12g]",
    "IC50 (µM)": 36.7
  },
  {
    "Molecule": "Cc1ccc2oc(SCC(=O)Nc3ccc(C(=O)NC4CCCC4)cc3)nc2c1 [Compound 12c]",
    "IC50 (µM)": 74.3
  },
  {
    "Molecule": "CNC(=O)c1cc(Oc2ccc(NC(=O)Nc3ccc(Cl)c(C(F)(F)F)c3)cc2)ccn1 [Sorafenib, sorafenib, reference compound]",
    "IC50 (µM)": 5.57
  },
  {
    "Molecule": "CC(C)(C)NC(=O)c1ccc(NC(=O)CSc2nc3cc(Cl)ccc3o2)cc1 [Compound 12e]",
    "IC50 (µM)": 71.6
  },
  {
    "Molecule": "O=C(CSc1nc2cc(Cl)ccc2o1)Nc1ccc(C(=O)NNC(=O)c2cccc(Cl)c2)cc1 [Compound 13b]",
    "IC50 (µM)": 42.1
  },
  {
    "Molecule": "O=C(CSc1nc2cc(Cl)ccc2o1)Nc1ccc(C(=O)Nc2cccc(Cl)c2)cc1 [Compound 12k]",
    "IC50 (µM)": 28.4
  },
  {
    "Molecule": "Cc1ccc2oc(SCC(=O)Nc3ccc(C(=O)Nc4cccc(Cl)c4)cc3)nc2c1 [Compound 12l]",
    "IC50 (µM)": 10.5
  },
  {
    "Molecule": "CC(C)(C)NC(=O)c1ccc(NC(=O)CSc2nc3ccccc3o2)cc1 [Compound 12d]",
    "IC50 (µM)": 23.6
  },
  {
    "Molecule": "Cc1ccc2oc(SCC(=O)Nc3ccc(C(=O)NNC(=O)c4cccc(Cl)c4)cc3)nc2c1 [Compound 13c]",
    "IC50 (µM)": 24.2
  },
  {
    "Molecule": "O=C(CSc1nc2cc(Cl)ccc2o1)Nc1ccc(C(=O)NC2CCCC2)cc1 [Compound 12b]",
    "IC50 (µM)": 64.2
  }
]

These measurements were taken from paper PMC9327782.
